FYI, the data here is from patent US6133294A.

So I've got a bunch of compounds here, and I need their pest or weed control at 100 ppm values.
# Test system: Leptosphaeria nodorum
# ASSAY REMARKS: Glume blotch of wheat (Leptosphaeria nodorum--LEPTNO)
# Type: in vivo
# TEST CONDITIONS: Parastagonospora nodorum; wheat (cultivar Monon), 100 ppm spray to run off, inoculated after 24 hours, 1DP; read-out: control of plant disease, LEPTNO 1DP

Identify measured pest or weed control at 100 ppm associated with CCc1cc(-c2cnc(OCc3ccccc3C(=NOC)C(=O)NC)c(Cl)c2)no1
75 to 100%

Identify measured pest or weed control at 100 ppm associated with CCc1nc(-c2cnc(OCc3ccccc3C(=NOC)C(=O)NC)c(Cl)c2)no1
75 to 100%

Identify measured pest or weed control at 100 ppm associated with CNC(=O)C(=NOC)c1ccccc1COc1ccc(-c2cc(C(C)(C)C)on2)cn1
75 to 100%

Identify measured pest or weed control at 100 ppm associated with CNC(=O)C(=NOC)c1ccccc1COc1ccc(-c2cc(C(C)C)on2)cn1
0 to 24%

Identify measured pest or weed control at 100 ppm associated with CCOC(=O)c1nc(-c2cnc(OCc3ccccc3C(=NOC)C(=O)NC)c(C)c2)oc1C
25 to 74%

Identify measured pest or weed control at 100 ppm associated with CNC(=O)C(=NOC)c1ccccc1COc1ncc(-c2nc(C(F)(F)F)no2)cc1Cl
75 to 100%

Identify measured pest or weed control at 100 ppm associated with CNC(=O)C(=NOC)c1ccccc1COc1ncc(-c2noc(CCCl)n2)cc1Cl
75 to 100%

Identify measured pest or weed control at 100 ppm associated with CNC(=O)C(=NOC)c1ccccc1COc1ncc(-c2noc(C)n2)cc1Cl
75 to 100%

Identify measured pest or weed control at 100 ppm associated with CNC(=O)C(=NOC)c1ccccc1COc1ncc(-c2nnc(-c3ccccc3)o2)cc1Cl
75 to 100%

Identify measured pest or weed control at 100 ppm associated with CNC(=O)C(=NOC)c1ccccc1COc1ncc(-c2nc(C)no2)cc1Cl
75 to 100%

Identify measured pest or weed control at 100 ppm associated with CNC(=O)C(=NOC)c1ccccc1COc1ccc(-c2noc(C(C)(C)C)n2)cn1
75 to 100%

Identify measured pest or weed control at 100 ppm associated with COC=C(C(=O)OC)c1ccccc1COc1ncc(-c2nc(C(C)(C)C)no2)cc1Cl
25 to 74%

Identify measured pest or weed control at 100 ppm associated with CNC(=O)C(=NOC)c1ccccc1COc1ncc(-c2noc(C3CCCC3)n2)cc1Cl
75 to 100%

Identify measured pest or weed control at 100 ppm associated with CNC(=O)C(=NOC)c1ccccc1COc1ccc(-c2noc(C(F)(F)F)n2)cn1
0 to 24%

Identify measured pest or weed control at 100 ppm associated with CNC(=O)C(=NOC)c1ccccc1COc1ncc(-c2noc(C34CC5CC(CC(C5)C3)C4)n2)cc1Cl
0 to 24%

Identify measured pest or weed control at 100 ppm associated with CNC(=O)C(=NOC)c1ccccc1COc1ccc(-c2nc(CC(C)C)no2)cn1
25 to 74%

Identify measured pest or weed control at 100 ppm associated with CNC(=O)C(=NOC)c1ccccc1COc1ncc(-c2cc(C(C)C)on2)cc1Cl
75 to 100%

Identify measured pest or weed control at 100 ppm associated with CNC(=O)C(=NOC)c1ccccc1COc1ncc(-c2noc(COC)n2)cc1Cl
25 to 74%

Identify measured pest or weed control at 100 ppm associated with CNC(=O)C(=NOC)c1ccccc1COc1ncc(-c2nc(CSc3ccccc3)no2)cc1Cl
75 to 100%

Identify measured pest or weed control at 100 ppm associated with CCC=Cc1nc(-c2cnc(OCc3ccccc3C(=NOC)C(=O)NC)c(Cl)c2)no1
75 to 100%

Identify measured pest or weed control at 100 ppm associated with CNC(=O)C(=NOC)c1ccccc1COc1ncc(-c2noc(C(C)(C)C)n2)cc1Cl
75 to 100%

Identify measured pest or weed control at 100 ppm associated with CNC(=O)C(=NOC)c1ccccc1COc1ncc(-c2nc(C(C)(C)C)no2)cc1C
75 to 100%

Identify measured pest or weed control at 100 ppm associated with CNC(=O)C(=NOC)c1ccccc1COc1ncc(-c2nc(COC)no2)cc1Cl
0 to 24%

Identify measured pest or weed control at 100 ppm associated with CNC(=O)C(=NOC)c1ccccc1COc1ccc(-c2nc(C(C)C)no2)cn1
75 to 100%

Identify measured pest or weed control at 100 ppm associated with CNC(=O)C(=NOC)c1ccccc1COc1ncc(-c2nc(C(C)(C)C)no2)cc1Cl
75 to 100%
